# System: Wild type
# measurement_description: S. aureus survival, RN4220 and DeltatarO strains – OD600, teichoic acid synthesis inhibitors, primary screen (AID 463173)
# condition_notes: S. aureus RN4220 wild type/DeltatarO growth, OD600, 18 h, hits give low values, screened at 18.75 µg/mL (by protocol)
Screen size: about 52,000 compounds; about 1,700 (3.3%) were called active. Shown is part of a subset that was picked to be rich in actives.
Entries and their measured survival follow.
Expressed in %, but write only the number.

Below, each entry is followed by its recorded survival result.
- compound: "CCNC(=S)N1CCC(n2cnc3ccccc32)CC1"
  assay_target: "Wild type"
  survival, %: 98
- compound: "COc1ccc2c(c1)c1c(c(=O)n(-c3ccc(C)cc3)c(=O)n1CC(=O)NCc1ccc(C)cc1)n2C"
  assay_target: "Wild type"
  survival, %: 70
- compound: "O=C1CC2CCCC(CN1)N2CC(=O)NCc1ccco1 (stereo not given)"
  assay_target: "Wild type"
  survival, %: 104
- compound: "Cc1cc(C)cc(NC(=O)Cc2c(C(=O)O)c(C)cn2C)c1"
  assay_target: "Wild type"
  survival, %: 47
- compound: "CCCN1C(C(=O)c2ccccc2)=C(OC(=O)COc2ccc(C)cc2)c2ccccc2S1(=O)=O"
  assay_target: "Wild type"
  survival, %: 25

-- ask I am curious: what survival value has been reported for Cc1cc(C)c(-c2n[nH]c3c2C(c2ccccc2F)N(Cc2ccco2)C3=O)c(O)c1 (stereo not given) ?
-- reply 8

-- ask Can you share its survival? I mean this compound: `CCOC(=O)c1c(-c2ccc(C)cc2)csc1NC(=O)c1nc(SCC)ncc1Cl`
-- reply 78

-- ask Recorded survival of `Cc1c(C(=O)OC(C)C)sc(NC(=O)C2c3ccccc3Oc3ccccc32)c1C(=O)OC(C)C` , please.
-- reply 87

-- ask Which measured survival value corresponds to Cc1cc(C)c(-c2n[nH]c3c2C(c2ccccc2F)N(CCO)C3=O)c(O)c1 (stereo not given) ?
-- reply 83

-- ask What does the data say about its survival? Entry: `CCOc1ccccc1CNCCNC(=O)c1nonc1N`
-- reply 128

-- ask Please report the recorded survival for `CC(=O)Nc1ccc(NC(=O)c2cc3sccc3n2Cc2ccc(Cl)cc2)cc1` .
-- reply 91

-- ask Form field: reported survival of `Cc1ccc(S(=O)(=O)C(=O)Nc2cccc3nsnc23)cc1`
-- reply 93

-- ask May I ask what survival has been recorded for `CC(=O)Nc1ccc(NC(=O)c2ccc3c(c2)NC(=O)c2ccccc2S3)cc1` ?
-- reply 138

-- ask Record request: survival value, item Cc1ccc(O)c(-c2n[nH]c3c2C(c2ccccc2F)N(Cc2ccco2)C3=O)c1 (stereo not given)
-- reply 11

-- ask Please look up its survival: `CCCc1ccc(OCC(=O)Nc2sc(C(=O)OCC)c(C)c2C(=O)OCC)cc1`
-- reply 92

-- ask Fill in: survival of `Cc1nn(Cc2ccccc2)c(C)c1CC(=O)O` is ___
-- reply 109

-- ask Need survival of `CC1=C(C#N)c2nc(N)c(C#N)c(C)c2/C1=C\c1cccnc1` , thanks.
-- reply 83

-- ask Reported survival for `CCCSc1ncc(Cl)c(C(=O)Nc2scc(-c3ccc(C)cc3)c2C(=O)OCC)n1` : what is it?
-- reply 87

-- ask Using the record for COc1cc(C2c3c(-c4cc(C)ccc4O)n[nH]c3C(=O)N2Cc2ccco2)cc(OC)c1OC (stereo not given) , report its survival.
-- reply 73

-- ask Need survival of CC1=C(C(=O)Nc2ccccc2)C(c2cccn2C)n2ncnc2N1 (stereo not given) , thanks.
-- reply 76

-- ask Need survival of `O=S(=O)(c1ccc(Cl)cc1)c1nc(-c2ccco2)oc1SCc1ccc(F)cc1` , thanks.
-- reply 73

-- ask Return reported survival; argument: `CCCNS(=O)(=O)c1ccc(OCC(=O)NCc2ccccn2)cc1`
-- reply 122

-- ask Returns the measured survival for the input compound. Input: O=C1c2[nH]nc(-c3ccccc3O)c2C(c2ccc(F)cc2)N1CCO (stereo not given)
-- reply 81

-- ask Could you tell me which survival is on file for `Cc1c(Cl)cccc1NC(=O)Cn1cnc2nc3c(cc2c1=O)CCCC3` ?
-- reply 131

-- ask Data request, read-out survival, for `COC(=O)c1c(NC(=O)COc2ccc(Cl)cc2)sc(C)c1C`
-- reply 73
